target: urokinase (Homo sapiens); construct: purchased Sigma (Schnelldorf, Germany); assay: Amidolytic activity of urokinase (chromogenic substrate pyro-Glu-Gly-Arg-pNA); assay type: biochemical; conditions: amidolytic activity; Tris pH 8.8, 37 °C; IC50 by extrapolation using a linear plot; error 5%; read-out: IC50 Urokinase
Listed next: entries and their corresponding IC50.
Kindly provide the numeric value in mM only, without the unit symbol.

>>> df
                                  substance  experimental_readout  reported
0  H-RTTKS-NH2 [Peptide 29, H-Arg-Thr-Thr-Lys-Ser-NH2]                  IC50      7.95
1  Ac-RTTKS-OH [Peptide 26, Ac-Arg-Thr-Thr-Lys-Ser-OH]                  IC50      2.36
2  Ac-KTTKS-OH [Peptide 2, Ac-Lys-Thr-Thr-Lys-Ser-OH]                  IC50      3.88
3  Ac-RTTRS-OH [Peptide 18, Ac-Arg-Thr-Thr-Arg-Ser-OH]                  IC50      3.24

Now for another entry.
Req: Would you mind telling me what IC50 value was observed for H-KTTRS-NH2 [Peptide 13, H-Lys-Thr-Thr-Arg-Ser-NH2] ?
Resp: 17.6

Values were extracted from paper PMC6832239.
